Target: T1, mVirD2 (Agrobacterium tumefaciens (from …, UniProt P06668 1-204))
T1 sequence: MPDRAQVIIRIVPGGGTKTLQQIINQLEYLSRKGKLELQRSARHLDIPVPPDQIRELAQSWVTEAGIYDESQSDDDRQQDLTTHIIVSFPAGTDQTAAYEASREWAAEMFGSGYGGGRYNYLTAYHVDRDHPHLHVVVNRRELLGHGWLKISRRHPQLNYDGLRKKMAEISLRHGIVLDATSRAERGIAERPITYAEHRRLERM
Test: EMSA; apparent Kd; 1 mM Mg2+; covalent conjugation; Conjugation/EMSA: TKM buffer (50 mM Tris-HCl pH 8, 150 mM KCl, 1 mM MgCl2, 10% glycerol), 37 C, 1 h, 10% native PAGE; HER2 beads: PBS, room temperature, 15 min
Details: protein: recombinant; tags: N-terminal 6xHis; label: 3' Cy3
reported-endpoint: Kd (nM)

1) GCTCAAATTACAACGGTATATATCCTGCCAGTCAG (ssDNA) [T1 (VirTarget)] ... 468

// data source = paper PMC5737863
